system: WNK2; details: concentration: 1 μM, replicates: in singlicate; n = 1;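 note: KINOMEscan kinase panel screen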
Kindly supply the reported %Inh values for the records listed here.
Give bare numbers, in %.

O=C(Nc1n[nH]c2nc(-c3nccs3)c(Br)cc12)C1CC1 [SB-742251]; 2
Clc1cc(Cl)cc(Nc2ccnc(Nc3cc(Cl)cc(Cl)c3)n2)c1 [GSK175726]; 0
COC(=O)c1c(-c2ccccc2)c2cc(OC)ccc2c(=O)n1Cc1ccccc1; 0

Fill in %Inh for each of the 2 molecules listed.
1. Cc1ccc(-c2cc(-c3c[nH]nc3-c3ccccn3)ccn2)cc1 [GW684088]
2. Cc1cc(-c2ccc3c(c2)CC[C@@H](N[C@@H](C)c2ccccc2)C3)cnc1N.Cl [GW412617]

1. 19
2. 0

* * *

test system: TLK1; details: concentration: 1 μM, replicates: in singlicate; n = 1
// NB: equality with 20% counts as class 0; only %Inh strictly below is class 1

Cc1ccc(NC(=O)Nc2cccc(Cl)c2)cc1-c1ccc(C(=O)Nc2ccncc2)cc1; class 1
Cc1ccccc1-n1cnc2c(N)ncnc21; class 0

Take the compound Cc1cccc(-c2nc(Nc3ccc4[nH]ncc4c3)c3ccccc3n2)n1 and say whether its %Inh is less than 20%.
class 0

Take the compound O=C(Nc1ccccc1)Nc1cccc(Oc2ccc3nccn3n2)c1 and say whether its %Inh is less than 20%.
class 1

Take the compound Cn1cncc1-c1ccc2ncnc(Nc3ccc(OCc4ccccc4)cc3)c2c1 and say whether its %Inh is less than 20%.
class 1

Take the compound Fc1cccc(COc2nnc(-c3ccc4c(c3)CCO4)o2)c1 and say whether its %Inh is less than 20%.
class 0

Take the compound Cc1c(O)cccc1Nc1ccnc2ccc(C(F)(F)F)cc12.Cl and say whether its %Inh is less than 20%.
class 1

Take the compound COc1cc(Nc2nccc(N3CCC(NC(=O)Nc4cc(C)ccc4C)C3)n2)cc(OC)c1OC (stereo not drawn) and say whether its %Inh is less than 20%.
class 1

Take the compound Cc1nnc(-c2ccc3occ(-c4ccc(S(C)=O)cc4)c3c2)[nH]1 (stereo not drawn) and say whether its %Inh is less than 20%.
class 1

* * *

Kindly supply the reported %Inh values for the records listed here.
test system: PAK6; conditions: concentration: 1 μM, replicates: in singlicate; n = 1
One number for each entry, in %.

Examples with their reported %Inh follow.
O=C(Nc1n[nH]c2nc(-c3nccs3)c(Br)cc12)C1CC1 [SB-742251]; 0
COc1ccc(C2=C(Nc3cccc(C(=O)O)c3)C(=O)NC2=O)cc1 [SB-390765]; 0
Cn1ccc2ncnc(Oc3ccc(NC(=O)Nc4ccccc4)cc3)c21; 0
Clc1cc(Cl)cc(Nc2ccnc(Nc3cc(Cl)cc(Cl)c3)n2)c1 [GSK175726]; 9

# next compound below
Give the value of %Inh reported for the following: COc1ccc(Nc2nccc(-c3cccc(NC(=O)c4cc5cc(F)ccc5[nH]4)c3)n2)cc1 [GSK1229782]
11

* * *

tested on: ERK4; construct: gene MAPK4; conditions: concentration: 1 μM, replicates: in singlicate; n = 1
Kindly supply the reported %Inh values for the records listed here.
Answer with the number, then the unit.

Examples with their reported %Inh follow.
O=c1cc(N2CCOCC2)nc2n(Cc3cccc(Cl)c3Cl)ccn12; 27%
O=S(=O)(c1ccc(-c2ccnc3[nH]ccc23)cc1)N1CCCC1; 30%
Cc1ccc(-c2cc(-c3c[nH]nc3-c3ccccn3)ccn2)cc1; 18%
Cl.O=C(Nc1cccc(-c2nn3ncccc3c2-c2ccnc(Nc3cccnc3)n2)c1)c1c(F)cccc1F; 16%
O=C(Nc1ccccc1)Nc1cccc(Oc2ccc3nccn3n2)c1; 0%

Fill in %Inh for each of the 8 compounds listed.
1. Fc1cccc(COc2nnc(-c3ccc4c(c3)CCO4)o2)c1
2. COc1ccc(CNC(=O)NC2CCN(c3ccnc(Nc4cc(OC)c(OC)c(OC)c4)n3)C2)cc1 (stereo not shown)
3. CCn1c(-c2ccccn2)nc2cnccc21
4. Cc1c(O)cccc1Nc1ccnc2ccc(C(F)(F)F)cc12.Cl
5. COc1cccc(-c2cc(-c3c[nH]nc3-c3ccccn3)ccn2)c1
6. Cc1cccc(-c2nc(Nc3ccc4[nH]ncc4c3)c3ccccc3n2)n1
7. Cc1ccccc1-n1cnc2c(N)ncnc21
8. CS(=O)(=O)c1ccc(-c2c(-c3ncn[nH]3)sc(N3CCOCC3)c2C#N)cc1

1. 0%
2. 0%
3. 6%
4. 0%
5. 8%
6. 9%
7. 0%
8. 12%
